Each entry below carries its reported Average inhibition female (%).
- Tested on: P. falciparum female gametocytes
- assay-notes: P. falciparum Dual Gamete Formation Assay (PfDGFA), female readout (Pfs25-positive female gametes)
- Format: cell-based, Plasmodium falciparum NF54
- experimental-conditions: 2µM, 24h preincubation with gametocytes; average of replicates
// units = %; emit number, no label

> print(dat)
                                smiles.code  observed.measurement
1  CS(=O)(=O)O.c1ccc2c(CNCCCCCCNCc3c(OCC4CC4)ccc4ccccc34)c(OCC3CC3)ccc2c1                  78.7
2  O=C(O)C(F)(F)F.O=c1[nH]ccc2nc(N[C@@H]3CCNC3)nc(Nc3cc(Cl)cc(Cl)c3)c12                  61.3
3  Nc1nc(N)c2c(ccc3[nH]c(-c4ccccc4Cl)nc32)n1                  54.2
4  COc1ccc(NC(=O)c2ccc(OCCCCCCCOc3ccc(C(=O)Nc4ccc(OC)c(N5CCN(C)CC5)c4)cc3)cc2)cc1N1CCN(C)CC1.O=C(O)C(=O)O                  47.5

"CNC(=O)c1ccccc1Nc1nc(Nc2cccc(CS(C)(=O)=O)c2)ncc1C.O=CO" has a reported Average inhibition female (%) of -2.2

"CS(=O)(=O)O.FC(F)(F)COc1ccc2ccccc2c1CNCCCCCCNCc1c(OCC(F)(F)F)ccc2ccccc12" has a reported Average inhibition female (%) of 42.8

"CS(=O)(=O)O.FC(F)(F)COc1ccc(CNCCCCCCNCc2ccc(OCC(F)(F)F)c3ccccc23)c2ccccc12" has a reported Average inhibition female (%) of 50.4

"CCn1c(-c2nonc2N)nc2c(-c3ccccc3)ncc(OCCCCNCCc3ncc[nH]3)c21.O=C(O)C(F)(F)F" has a reported Average inhibition female (%) of 36.6

"COc1ccc2nc3cc(Cl)ccc3c(N)c2c1.Cl" has a reported Average inhibition female (%) of 50.6

* * *

- System: P. falciparum female gametocytes
- assay-notes: P. falciparum Dual Gamete Formation Assay (PfDGFA), female readout (Pfs25-positive female gametes)
- Format: cell-based, Plasmodium falciparum NF54
- experimental-conditions: 2µM, 24h preincubation with gametocytes prior to induction of gametogenesis; replicate R4
observable: % inhibition female (individual replicates) R4
Kindly format the answer as number then unit.

> print(dat)
                                   molecule  observed.measurement
1  Fc1ccc2[nH]c(-c3cccc(-c4ccc(CNCCN5CCNCC5)cc4)c3)nc2c1.O=C(O)C(F)(F)F [TCMDC-132863]                 42.6%
2  O=C(c1ccc([N+](=O)[O-])o1)N1CCN(c2nc3c(F)cc(F)cc3s2)CC1 [TCMDC-125149]                 0.07%

Next up:
CC1(C)N=C(N)N=C(N)N1c1ccc(Br)cc1.Cl [TCMDC-123959] has a reported % inhibition female (individual replicates) R4 of 26.1%

* * *

- System: P. falciparum female gametocytes
- assay-notes: P. falciparum Dual Gamete Formation Assay (PfDGFA), female readout (Pfs25-positive female gametes)
- Assay type: cell-based, Plasmodium falciparum NF54
- experimental-conditions: Plasmodium falciparum; PfDGFA at 2µM, 24h preincubation with gametocytes; replicate R3; read-out: % inhibition female (individual replicates) R3
observable: inhibition at 2 µM

Fc1ccc2[nH]c(-c3ccc(-c4ccc(CNCCN5CCNCC5)cc4)s3)nc2c1.O=C(O)C(F)(F)F [TCMDC-132869] has a reported inhibition at 2 µM of -3.4%

* * *

- Test system: P. falciparum female gametocytes
- assay-notes: P. falciparum Dual Gamete Formation Assay (PfDGFA), female readout (Pfs25-positive female gametes)
- Format: cell-based, Plasmodium falciparum NF54
- experimental-conditions: Plasmodium falciparum; PfDGFA at 2µM, 24h preincubation with gametocytes; replicate R2; read-out: % inhibition female (individual replicates) R2
observable: inhibition at 2 µM (%)
// units = %; emit number, no label

Examples from the recorded data:
> print(dat)
                                   compound                       system.name  observed.measurement
1  CC(Nc1cc(-c2ccccn2)nc(-c2ccccn2)n1)c1ccccc1 (centres unmarked) [TCMDC-125420]  P. falciparum female gametocytes                  57.8
2  Cc1ccc(-n2c(Sc3ncnc4sccc34)nnc2N2CCCC2)cc1 [TCMDC-125247]  P. falciparum female gametocytes                  85.8

COCCN(C)CCCOc1cc2c(cc1OC)ncn2-c1cc(OCc2ccccc2C(F)(F)F)c(C(N)=O)s1.Cl [TCMDC-135214] has a reported inhibition at 2 µM of 10

CC(C)(CN)c1nc(-c2ccc(Br)c(O)c2)c(-c2ccncc2)[nH]1.Cl [TCMDC-140680] has a reported inhibition at 2 µM of 95.4

COc1cc(-c2nc(C(C)(C)CN)[nH]c2-c2ccncc2)ccc1Br.Cl [TCMDC-140674] has a reported inhibition at 2 µM of 85.8

COc1ccc(C[C@H](N)C(=O)N[C@H]2[C@@H](O)[C@H](n3cnc4c(N(C)C)ncnc43)O[C@@H]2CO)cc1 [TCMDC-123493] has a reported inhibition at 2 µM of 55

O=C(NC1CCN(Cc2ccccc2)CC1)c1cc(C(=O)NC2CCN(Cc3ccccc3)CC2)cc(C(=O)NC2CCN(Cc3ccccc3)CC2)c1 [TCMDC-124568] has a reported inhibition at 2 µM of 60.5

CC(C)S(=O)(=O)N1CCN(Cc2ccc3c(c2)nc(NC(=O)c2ccsc2)n3C[C@H](O)c2ccccc2)CC1 [TCMDC-138569] has a reported inhibition at 2 µM of -0.7

Cc1cccc(Nc2nc(NCCCCN)nc3cc[nH]c(=O)c23)c1.O=C(O)C(F)(F)F [TCMDC-134946] has a reported inhibition at 2 µM of 23

COc1ccc2nc3cc(Cl)ccc3c(NCCCCNc3c4ccc(Cl)cc4nc4ccc(OC)cc34)c2c1 [TCMDC-138218] has a reported inhibition at 2 µM of 86.6

c1ccc2[nH]c(CN(Cc3nc4ccccc4[nH]3)Cc3nc4ccccc4[nH]3)nc2c1 [TCMDC-124132] has a reported inhibition at 2 µM of -7.6

* * *

- System: P. falciparum male gametocytes
- assay-notes: P. falciparum Dual Gamete Formation Assay (PfDGFA), male readout (exflagellation)
- Assay type: cell-based, Plasmodium falciparum NF54
- experimental-conditions: PfDGFA at 2µM, 24h preincubation; average of replicates
observable: Average inhibition male (%)
// units = %; emit number, no label

Examples from the recorded data:
compound	observable	units-label	observed-measurement
Cc1ccc(Cc2c(C)nc3nc(N)nc(N)c3c2C)cc1.Cl	Average inhibition male (%)	%	14.9
COc1ccc(N2C(N)=NC(N)=NC2(C)C)cc1.Cl	Average inhibition male (%)	%	11.6
O=C(O)C(F)(F)F.c1cc(CNCCN2CCNCC2)cc(-c2ccc(-c3nc4ccccc4[nH]3)cc2)c1	Average inhibition male (%)	%	-11.2
CS(=O)(=O)c1ccc(-n2nc(C(F)(F)F)cc2-c2ccc(C=NOCC(=O)O)o2)cc1	Average inhibition male (%)	%	-6.3
CC(Cc1ccc(COc2ccc(CC(CO)NCCc3cccc(Cl)c3)cc2)cc1)NCCc1cccc(Cl)c1.Cl (centres unmarked)	Average inhibition male (%)	%	1.7
CCCc1cc(Cc2cnc(N)nc2N)cc(CCC)c1O.Cl	Average inhibition male (%)	%	-1.8

"C=C[C@]1(C)C[C@@H](OC(=O)CNC[C@@H](O)CN2C[C@H](c3ccnc4ccc(OC)nc34)OC2=O)[C@]2(C)[C@H](C)CC[C@]3(CCC(=O)[C@H]32)[C@@H](C)[C@@H]1O" has a reported Average inhibition male (%) of -1.6

"CS(=O)(=O)CCNCc1ccc(-c2ccc3c(Nc4ccc(Cl)cc4F)ccnc3c2)o1" has a reported Average inhibition male (%) of -2.9

* * *

- Tested on: P. falciparum female gametocytes
- assay-notes: P. falciparum Dual Gamete Formation Assay (PfDGFA), female readout (Pfs25-positive female gametes)
- Assay type: cell-based, Plasmodium falciparum NF54
- experimental-conditions: PfDGFA at 2µM, 24h preincubation with gametocytes prior to induction of gametogenesis; replicate R4
Each entry below carries its reported % inhibition female (individual replicates) R4.
// units = %; emit number, no label

> print(dat)
                                   compound  units.label  observed.measurement
1  CC(C)n1cc2c(ccc3nc(N)nc(N)c32)n1 [TCMDC-137865]            %                  -1.6
2  Nc1nc(N)c2c(ccc3c2ccn3CCCCO)n1 [TCMDC-137959]            %                   2.0

O=C(O)C(F)(F)F.c1cc(CNCCN2CCNCC2)cc(-c2ccc(-c3nc4ccccc4[nH]3)cc2)c1 [TCMDC-132861] has a reported % inhibition female (individual replicates) R4 of 9.1

CC(=O)Nc1cccc(Nc2nccc(-c3c(-c4cccc(NC(=O)c5c(F)cccc5F)c4)nn4ncccc34)n2)c1 [TCMDC-135548] has a reported % inhibition female (individual replicates) R4 of -8.4

Each recorded value in this set is attributed to paper PMC10584170.
